Origin of values: patent US12065483

Listing: ELISA signal of selected binders
# measured-target: Influenza Hemagglutinin A (influenza A virus)
# assay-overview: ELISA on Influenza Hemagglutinin A (1 ug/mL); 293 supernatant diluted 1:1000
// no unit string in output, number only

Here are 3 binders together with their reported answers.
Query block: Answer with reported ELISA signal of F2-02 (VHH) VHH: QVQLVESGGGLVQAGGSLRLSCAASGRTFRSFAMGWFRQAPGKEREFVATISWWSNNTYYADSVKGRFTISRDIAKNTVYLQMNSLKPEDTAVYYCAADLGPWLTAGQYDYWGQGTQVTVSS
Result block: 0.73

Query block: Write down ELISA signal measured for item F1-04 (VHH) VHH: QVQLVESGGGLVQVGGSLRLSCAASERPSSNYAMGWFRQAPGKEQEFVAAIYWSGGGTAYGDSVKGRFTISKDNAKNTVYLQMNDLKPEDTGMYYCTTDHYGSWSYEYGSWGQGTQVTVSS
Result block: 0.366

Query block: Kindly indicate its recorded ELISA signal. Item: F2-24 (VHH) VHH: QVQLVESGGGLVQAGGSLRLSCASSGHTFNSYVMGWFRQAPGKEREFVAAIRPSGVSTYYADSVKGRFTISRDNAKNTVSLEMNSLKPEDTAVYYCAGDRDHSMMAVRRLSSYRQWGRGTQVTVSS
Result block: 0.279

***
Query block: Report measured ELISA signal; entry is F2-20 (VHH) VHH: QVQLVESGGGLVQAGGSLRLSCAASGRTFSRYAMGWFRQAPGKEREFVARISWSGDITYYADSVKGRFTISRDNAKNTVYLQMNSLKPEDTAVYYCAADAILRTRPPYESDYWGQGTQVTVSS
Result block: 0.442
